Tested target: Relaxin receptor 1 (Homo sapiens)
Run description: qHTS Assay for Agonists of the Relaxin Receptor RXFP1: RXFP1 Hit Validation; further: nearly all actives have a fitted effect of over 65% in size;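 on activation: cAMP rise lowers the TR-FRET signal in lysed cells with PDE4 inhibitor present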
Experimental parameters: HEK293T-RXFP1 cAMP TR-FRET, 30 min; series mostly up to 115 µM
Records with an inconclusive call do not appear. Active and inactive are the calls of the source. The call rests on the fitted dose curve; in most records, active means well fitted activation curve with a large enough effect; inconclusive means small, poorly fitted or top-dose-only effect; inactive means no such curve, though single readings can be large or run the other way.
Labels: active, inactive

# Compound, Class name
data = [
    ("Nc1ncnc2c1ncn2C1OC(CO)C(O)C1O (stereo not drawn)", "active"),
    ("Cc1cc(Br)c2nc3c(c(C(=O)O)c2c1)CCCCC3", "active"),
    ("O=C(Nc1ccccc1C(=O)Nc1ccccc1)c1ccco1", "inactive"),
    ("COc1cccc(C(=O)CSc2nnc(-c3cc(OC)cc(OC)c3)o2)c1", "active"),
    ("Cc1ccc(C(=O)Nc2cccc(C(F)(F)F)c2)cc1NC(=O)c1cnnc2ccccc12", "inactive"),
    ("O=C(CCc1nnc2ccc(NCCCN3CCCC3=O)nn12)NCc1ccccc1Cl", "inactive"),
    ("CCOC(=O)c1sc(NC(=O)CCc2ccc(OC)cc2)nc1C", "active"),
    ("O=C1CN(c2nc3ccccc3n3cnnc23)CC(=O)N1CCc1ccccc1", "inactive"),
    ("Cc1cc(C)nc(NS(=O)(=O)c2ccc(N3C(=O)c4ccccc4C3=O)cc2)n1", "active"),
    ("Cc1ccc2[nH]c3c(=S)nc[nH]c3c2c1", "active"),
    ("Cn1c(=O)c2c(nc(SCC(=O)N3CCOCC3)n2C)n(C)c1=O", "inactive"),
    ("O=C(O)c1ccc(N=C2NC(=O)C(CO)(CO)S2)cc1", "inactive"),
    ("O=C(Nc1ccccc1C(=O)N1CCNCC1)c1ccco1", "inactive"),
]

Data provenance is PubChem BioAssay AID489012.
